Biological target: UniProtKB Q9Y5Y4
Sequence (Q9Y5Y4 whole entry): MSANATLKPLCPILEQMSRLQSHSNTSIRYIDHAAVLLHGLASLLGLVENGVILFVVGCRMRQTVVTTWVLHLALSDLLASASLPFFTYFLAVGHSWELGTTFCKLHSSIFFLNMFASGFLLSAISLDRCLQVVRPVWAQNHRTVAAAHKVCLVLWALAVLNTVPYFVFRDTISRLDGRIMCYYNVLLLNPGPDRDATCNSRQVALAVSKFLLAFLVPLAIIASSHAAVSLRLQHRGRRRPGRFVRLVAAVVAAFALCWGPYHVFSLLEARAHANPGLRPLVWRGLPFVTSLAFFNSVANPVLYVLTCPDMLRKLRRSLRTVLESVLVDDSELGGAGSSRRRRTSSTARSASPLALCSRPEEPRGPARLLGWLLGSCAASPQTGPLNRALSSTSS
Assay: Human CRTH2 Receptor Binding Assay (whole cell, [3H]ramatroban)
Parameters: expressed in transfected cells; host or cells: CHO-K1
Details: CHO-K1 cells expressing human CRTH2 and G-alpha16; 20 nM [3H]ramatroban; 1 hour, room temperature
Procedure: A whole cell receptor binding assay using [^3H]ramatroban as the competing radioactive ligand was employed to evaluate the compound binding activity to human CRTH2. […] The binding reactions (0.2 mL) were performed in 96-well plates at room temperature in PBS containing 1.5×10^5 cells, 10 mM MgCl2, 0.06% BSA, 20 nM [^3H]ramatroban, and test compound at various concentrations. […] Specific binding data were obtained by subtracting the radioactivity of non-specific binding from each binding data. […]
Measured quantity: IC50 (nM)

Take a look at these entries with their results.
>>> recorded_number("CN(C)S(=O)(=O)c1ccc(C(=O)c2cc(CC(=O)O)cc3ccc(F)cc23)cc1")
2.7
>>> recorded_number("CCS(=O)(=O)c1ccc(C(F)(F)c2cc(CC(=O)O)cc3ccc(F)cc23)cc1")
3.9
>>> recorded_number("CCS(=O)(=O)c1ccc(Cc2c(C)c(CC(=O)O)cc3ccc(F)cc23)cc1")
3.1
>>> recorded_number("CS(=O)(=O)c1cccc(C(=O)c2cc(CC(=O)O)cc3ccccc23)c1")
135
>>> recorded_number("CS(=O)(=O)c1ccc(Cc2cc(CC(=O)O)cc3ccc(F)cc23)cc1")
6.1
>>> recorded_number("CN(C)S(=O)(=O)c1ccc(C(=O)c2cc(CC(=O)O)cc3ccccc23)cc1")
17.8

a: Cc1c(CC(=O)O)cc2ccc(Cl)cc2c1C(=O)c1ccc(S(C)(=O)=O)cc1
b: CS(=O)(=O)c1ccc(C(=O)c2cc(CC(=O)O)cc3ccc(Cl)cc23)cc1
Q) Higher IC50 between a and b ? Field: selected label. Fill in the label of the entry you choose.
A) b

P: CS(=O)(=O)c1ccc(C(=O)c2cc(CC(=O)O)cc3ccc(C(F)(F)F)cc23)cc1
Q: COC(=O)c1cccc(Cc2c(C)c(CC(=O)O)cc3ccc(F)cc23)c1
R: NS(=O)(=O)c1ccc(C(=O)c2cc(CC(=O)O)cc3ccc(F)cc23)cc1
S: Cc1c(CC(=O)O)cc2ccc(F)cc2c1Cc1cccc(C#N)c1
Q) Write the entries in order, lowest recorded IC50 first. In your reply, arrange the labels in the requested order.
A) P, Q, R, S
(P: 7.5 nM, Q: 27.6 nM, R: 40.2 nM, S: 59.9 nM)

P: Cc1c(CC(=O)O)cc2ccc(F)cc2c1Cc1ccc(-c2cncnc2)cc1
Q: Cc1cc(S(C)(=O)=O)ccc1Cc1cc(CC(=O)O)cc2ccc(F)cc12
R: Cc1c(CC(=O)O)cc2ccc(F)cc2c1Cc1ccc(-c2nnnn2C)cc1
S: Cc1c(CC(=O)O)cc2ccc(F)cc2c1Cc1cccc(S(C)(=O)=O)c1
T: Cc1c(CC(=O)O)cc2ccc(F)cc2c1Cc1cccc(Cl)c1
Q) Write the entries in order, lowest recorded IC50 first. In your reply, arrange the labels in the requested order.
A) Q, P, R, S, T
(Q: 5.3 nM, P: 10.2 nM, R: 32.5 nM, S: 54 nM, T: 83.8 nM)

1: CS(=O)(=O)c1ccc(C(O)c2cc(CC(=O)O)cc3ccc(F)cc23)cc1 (stereo not shown)
2: CS(=O)(=O)c1ccc(C(=O)c2cc(CC(=O)O)cc3cc(F)ccc23)cc1
Q) Which record shows the lower IC50: the first, 1 , or the second, 2 ? Field: selected label. Fill in the label of the entry you choose.
A) 1

I: O=C(O)Cc1cc(C(O)c2ccc(S(=O)(=O)N3CCOCC3)cc2)c2cc(F)ccc2c1 (stereo not shown)
II: Cc1c(CC(=O)O)cc2ccc(F)cc2c1Cc1ccc(-c2ccc(S(C)(=O)=O)cc2)cc1
Q) Higher IC50 between I and II ? Field: selected label. Fill in the label of the entry you choose.
A) I
(I: 9.5 nM, II: 5.6 nM)

a: CNS(=O)(=O)c1ccc(C(=O)c2cc(CC(=O)O)cc3ccc(F)cc23)c(C)c1
b: Cc1ccc(Cc2c(C)c(CC(=O)O)cc3ccc(F)cc23)cc1
Q) Higher IC50 between a and b ? Field: selected label. Fill in the label of the entry you choose.
A) b
